target: wildtype LRRK2 (Homo sapiens, UniProt Q5S007); construct: expressed in transfected cells; host or cells: HEK293 (ATCC CRL-1573), transient transfection, ubiquitin promoter; test: LRRK2 degradation assay, wildtype LRRK2-HiBit expressed from plasmid in HEK293 cells; type: cell-based; conditions: HEK293 cells transfected with HiBit-tagged wildtype LRRK2, 24 hours compound incubation; read-out: *WT DC50
Sequence (Q5S007 whole entry): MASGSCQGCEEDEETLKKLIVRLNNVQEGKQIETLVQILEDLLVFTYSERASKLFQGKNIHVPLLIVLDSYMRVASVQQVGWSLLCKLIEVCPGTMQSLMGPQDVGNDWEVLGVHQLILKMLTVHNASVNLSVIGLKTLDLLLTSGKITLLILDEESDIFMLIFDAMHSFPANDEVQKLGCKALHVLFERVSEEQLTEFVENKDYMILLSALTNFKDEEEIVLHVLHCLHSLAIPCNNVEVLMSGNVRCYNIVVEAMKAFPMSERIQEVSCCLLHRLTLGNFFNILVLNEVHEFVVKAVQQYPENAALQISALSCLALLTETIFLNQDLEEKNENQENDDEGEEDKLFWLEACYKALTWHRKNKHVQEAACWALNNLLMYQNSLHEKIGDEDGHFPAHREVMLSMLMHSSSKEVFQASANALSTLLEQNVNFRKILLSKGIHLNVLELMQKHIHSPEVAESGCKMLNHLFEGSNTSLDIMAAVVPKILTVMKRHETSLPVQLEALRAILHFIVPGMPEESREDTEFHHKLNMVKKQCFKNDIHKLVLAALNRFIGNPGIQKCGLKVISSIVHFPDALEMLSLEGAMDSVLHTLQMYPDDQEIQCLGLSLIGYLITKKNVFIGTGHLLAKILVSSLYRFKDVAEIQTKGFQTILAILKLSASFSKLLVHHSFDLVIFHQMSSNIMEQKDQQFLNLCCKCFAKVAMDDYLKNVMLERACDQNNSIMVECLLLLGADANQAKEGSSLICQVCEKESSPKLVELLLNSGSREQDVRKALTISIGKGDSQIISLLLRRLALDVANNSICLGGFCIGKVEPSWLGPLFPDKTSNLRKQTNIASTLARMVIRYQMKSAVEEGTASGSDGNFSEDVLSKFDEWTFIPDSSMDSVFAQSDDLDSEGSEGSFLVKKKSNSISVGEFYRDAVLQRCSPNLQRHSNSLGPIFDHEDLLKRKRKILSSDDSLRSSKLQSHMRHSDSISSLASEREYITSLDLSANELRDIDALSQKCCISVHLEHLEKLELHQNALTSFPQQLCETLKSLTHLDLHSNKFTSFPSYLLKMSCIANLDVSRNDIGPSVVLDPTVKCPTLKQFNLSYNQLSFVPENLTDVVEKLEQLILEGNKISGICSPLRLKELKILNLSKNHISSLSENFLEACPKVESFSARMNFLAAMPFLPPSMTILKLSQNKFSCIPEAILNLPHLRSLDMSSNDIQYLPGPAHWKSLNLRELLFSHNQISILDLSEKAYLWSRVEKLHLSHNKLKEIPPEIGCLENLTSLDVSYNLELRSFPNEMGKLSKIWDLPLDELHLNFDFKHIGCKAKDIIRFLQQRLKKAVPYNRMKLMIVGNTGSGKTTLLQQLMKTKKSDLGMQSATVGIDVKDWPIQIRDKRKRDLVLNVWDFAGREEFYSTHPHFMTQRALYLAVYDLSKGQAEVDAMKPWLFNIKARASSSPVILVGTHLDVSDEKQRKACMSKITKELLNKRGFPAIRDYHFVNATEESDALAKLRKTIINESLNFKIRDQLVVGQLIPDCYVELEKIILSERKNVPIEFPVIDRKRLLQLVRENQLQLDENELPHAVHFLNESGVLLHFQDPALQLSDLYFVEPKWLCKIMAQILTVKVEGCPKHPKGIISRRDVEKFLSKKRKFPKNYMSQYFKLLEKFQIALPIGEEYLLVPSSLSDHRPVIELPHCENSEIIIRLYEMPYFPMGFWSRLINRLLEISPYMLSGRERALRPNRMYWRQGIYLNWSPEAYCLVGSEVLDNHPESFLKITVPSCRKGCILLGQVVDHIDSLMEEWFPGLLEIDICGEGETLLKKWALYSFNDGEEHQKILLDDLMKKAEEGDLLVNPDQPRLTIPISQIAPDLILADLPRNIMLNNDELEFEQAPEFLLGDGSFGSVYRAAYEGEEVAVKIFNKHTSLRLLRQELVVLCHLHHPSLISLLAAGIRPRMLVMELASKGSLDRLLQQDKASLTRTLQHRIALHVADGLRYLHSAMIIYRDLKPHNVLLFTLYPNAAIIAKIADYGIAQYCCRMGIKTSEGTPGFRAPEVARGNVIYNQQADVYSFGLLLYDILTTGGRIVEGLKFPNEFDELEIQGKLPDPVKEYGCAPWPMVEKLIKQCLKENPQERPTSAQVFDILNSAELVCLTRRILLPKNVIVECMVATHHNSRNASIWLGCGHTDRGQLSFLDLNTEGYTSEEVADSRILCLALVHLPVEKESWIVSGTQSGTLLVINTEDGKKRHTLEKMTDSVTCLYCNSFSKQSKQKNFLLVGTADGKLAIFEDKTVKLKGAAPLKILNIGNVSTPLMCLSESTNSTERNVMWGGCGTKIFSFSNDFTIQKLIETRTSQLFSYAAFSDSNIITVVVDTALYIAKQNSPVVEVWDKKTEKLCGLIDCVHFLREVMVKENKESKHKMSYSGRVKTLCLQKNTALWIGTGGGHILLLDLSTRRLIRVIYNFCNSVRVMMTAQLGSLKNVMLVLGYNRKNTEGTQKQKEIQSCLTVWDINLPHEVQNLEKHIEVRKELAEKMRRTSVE
property.measured: DC50

- molecule: "CC(C)Oc1cc2c(-c3ccnc(N4CCN(CCOCCOCCOCCOc5ccc6c(c5)C(=O)N(C5CCC(=O)NC5=O)C6=O)[C@@H](C)C4)c3)n[nH]c2cc1F (some centres unmarked) [compound 14]"
  result: "≥ 100 nM"
- molecule: "CC(C)Oc1ccc2[nH]nc(-c3cc(N4CCN(CCOCCC#CCN5CCN(c6ccc7c(c6)C(=O)N(C6CCC(=O)NC6=O)C7=O)CC5)[C@@H](C)C4)ncn3)c2c1 (some centres unmarked) [compound 34]"
  result: "50 to 100 nM"
- molecule: "C[C@H]1CN(c2cc(-c3[nH]nc4ccc(OC5(C)CC5)cc34)ncn2)CCN1CCOc1ccc2c(c1)C(=O)N(C1CCC(=O)NC1=O)C2=O (some centres unmarked) [compound 1]"
  result: "< 10 nM"
- molecule: "CC(C)Oc1ccc2[nH]nc(-c3cc(N4CCN(CCN(C)CCN5CCN(c6ccc7c(c6)C(=O)N(C6CCC(=O)NC6=O)C7=O)CC5)[C@@H](C)C4)ncn3)c2c1 (some centres unmarked) [compound 37]"
  result: "≥ 100 nM"
- molecule: "CC(C)Oc1ccc2[nH]nc(-c3cc(N4CCN(CCOCCOCCOCCOc5ccc6c(c5)C(=O)N(C5CCC(=O)NC5=O)C6=O)[C@@H](C)C4)ncn3)c2c1 (some centres unmarked) [compound 9]"
  result: "≥ 100 nM"

====

Here the recorded DC50 is given for each entry.
target: wildtype LRRK2 (Homo sapiens); construct: expressed in transfected cells; host or cells: HEK293 (ATCC CRL-1573), transient transfection, ubiquitin promoter; assay: LRRK2 degradation assay, wildtype LRRK2-HiBit expressed from plasmid in HEK293 cells; assay type: cell-based; conditions: HEK293 cells transfected with HiBit-tagged wildtype LRRK2, 24 hours compound incubation; read-out: *WT DC50

- molecule: "C[C@H]1CN(c2cc(-c3n[nH]c4ccc(OC5(C)CC5)cc34)ncn2)CCN1CCOCCOCCOc1ccc2c(c1)C(=O)N(C1CCC(=O)NC1=O)C2=O (stereo partly shown)"
  DC50: "< 0.01 µM"
- molecule: "CC(C)Oc1ccc2[nH]nc(-c3cc(N4CCN(CC[C@H]5CCN(CC6CCN(c7ccc8c(c7)C(=O)N(C7CCC(=O)NC7=O)C8=O)CC6)C5)CC4)ncn3)c2c1 (stereo partly shown)"
  DC50: "0.01 to 0.05 µM"
- molecule: "CC(C)Oc1ccc2[nH]nc(-c3cc(N4CCN(CC5CCN(CC6CCN(c7ccc8c(c7)C(=O)N(C7CCC(=O)NC7=O)C8=O)CC6)CC5)[C@@H](C)C4)ncn3)c2c1 (stereo partly shown)"
  DC50: "< 0.01 µM"
- molecule: "CC(C)Oc1ccc2[nH]nc(-c3cc(N4CCN(CC[C@@H]5CCN(CC6CCN(c7ccc8c(c7)C(=O)N(C7CCC(=O)NC7=O)C8=O)CC6)C5)CC4)ncn3)c2c1 (stereo partly shown)"
  DC50: "0.01 to 0.05 µM"
- molecule: "CC(C)Oc1ccc2[nH]nc(-c3cc(N4CCN(CCN5CCN(CC6CCN(c7ccc8c(c7)C(=O)N(C7CCC(=O)NC7=O)C8=O)CC6)CC5)CC4)ncn3)c2c1 (stereo not shown)"
  DC50: "< 0.01 µM"
- molecule: "C[C@H]1CN(c2cc(-c3n[nH]c4ccc(OC5(C)CC5)cc34)ncn2)CCN1CCOCCOCCOCCOCCOc1ccc2c(c1)C(=O)N(C1CCC(=O)NC1=O)C2=O (stereo partly shown)"
  DC50: "0.01 to 0.05 µM"
- molecule: "C[C@@H]1CN(c2cc(-c3n[nH]c4ccc(OC5(C)CC5)cc34)ncn2)C[C@H](C)N1CCOCCOCCOc1ccc2c(c1)C(=O)N(C1CCC(=O)NC1=O)C2=O (stereo partly shown)"
  DC50: "< 0.01 µM"
- molecule: "CC(C)Oc1ccc2[nH]nc(-c3cc(N4CCN(CCN5CC6(CN(CCOc7ccc8c(c7)C(=O)N(C7CCC(=O)NC7=O)C8=O)C6)C5)[C@@H](C)C4)ncn3)c2c1 (stereo partly shown)"
  DC50: "0.05 to 0.1 µM"
- molecule: "CC(C)Oc1ccc2[nH]nc(-c3cc(N4CCN(CCOCCOCCOc5ccc6c(c5)C(=O)N(C5CCC(=O)NC5=O)C6=O)[C@@H](C)C4)ncn3)c2c1 (stereo partly shown)"
  DC50: "≥ 0.1 µM"
- molecule: "C[C@@H]1CN(c2cc(-c3n[nH]c4ccc(OC5(C)CC5)cc34)ncn2)C[C@H](C)N1CCOCCOCCOCCOc1ccc2c(c1)C(=O)N(C1CCC(=O)NC1=O)C2=O (stereo partly shown)"
  DC50: "< 0.01 µM"
- molecule: "CC(C)Oc1ccc2[nH]nc(-c3cc(N4CCO[C@@H](CN5CCN(CC6CCN(c7ccc8c(c7)C(=O)N(C7CCC(=O)NC7=O)C8=O)CC6)CC5)C4)ncn3)c2c1 (stereo partly shown)"
  DC50: "< 0.01 µM"
- molecule: "C[C@H]1CN(c2cc(-c3n[nH]c4ccc(OC5(C)CC5)cc34)ccn2)CCN1CCOCCOCCOCCOc1ccc2c(c1)C(=O)N(C1CCC(=O)NC1=O)C2=O (stereo partly shown)"
  DC50: "< 0.01 µM"
- molecule: "CC(C)Oc1ccc2[nH]nc(-c3cc(N4C[C@@H](C)N(CCOCCOCCOCCOc5ccc6c(c5)C(=O)N(C5CCC(=O)NC5=O)C6=O)[C@@H](C)C4)ncn3)c2c1 (stereo partly shown)"
  DC50: "0.01 to 0.05 µM"
- molecule: "CC(C)Oc1ccc2[nH]nc(-c3cc(N4CCN(CCN5CC(CN6CCN(c7ccc8c(c7)C(=O)N(C7CCC(=O)NC7=O)C8=O)CC6)C5)CC4)ncn3)c2c1 (stereo not shown)"
  DC50: "0.01 to 0.05 µM"
- molecule: "CC(C)Oc1ccc2[nH]nc(-c3cc(N4CCN(CCN(C)CCCN5CCN(c6ccc7c(c6)C(=O)N(C6CCC(=O)NC6=O)C7=O)CC5)[C@@H](C)C4)ncn3)c2c1 (stereo partly shown)"
  DC50: "0.01 to 0.05 µM"
- molecule: "C[C@@H]1CN(c2cc(-c3n[nH]c4ccc(OC5(C)CC5)cc34)ncn2)C[C@H](C)N1CCOCCN1CCN(c2ccc3c(c2)C(=O)N(C2CCC(=O)NC2=O)C3=O)CC1 (stereo partly shown)"
  DC50: "< 0.01 µM"
- molecule: "CC(C)Oc1ccc2[nH]nc(-c3cc(N4CCN(CCN5CCC(CC6CCN(c7ccc8c(c7)C(=O)N(C7CCC(=O)NC7=O)C8=O)CC6)CC5)CC4)ncn3)c2c1 (stereo not shown)"
  DC50: "0.01 to 0.05 µM"
- molecule: "C[C@H]1CN(c2cc(-c3n[nH]c4ccc(OC5(C)CC5)cc34)ncn2)CCN1CCOCCOCCOCCOc1ccc(C(=O)NC2CCC(=O)NC2=O)c(F)c1 (stereo partly shown)"
  DC50: "0.01 to 0.05 µM"
- molecule: "CC(C)Oc1ccc2[nH]nc(-c3cc(N4CCN(CCN5CCC(CN6CCN(c7ccc8c(c7)C(=O)N(C7CCC(=O)NC7=O)C8=O)CC6)CC5)CC4)ncn3)c2c1 (stereo not shown)"
  DC50: "< 0.01 µM"

Measured values drawn from patent US20250114356A1 for this set.
